Tested on: CP238
protocol: qHTS profiling for inhibitors of Plasmodium falciparum proliferation (AID 504749); further: potency means the concentration at half of the fitted maximal effect; nearly all actives have a fitted effect of over 60% in size
recorded.conditions: P. falciparum in erythrocytes, SYBR Green DNA, 72 h; series mostly up to 28.7 µM
Records with an inconclusive call do not appear. The source made the active and inactive calls. The call rests on the fitted dose curve; in most records, active means well fitted inhibition curve with a large enough effect; inconclusive means small, poorly fitted or top-dose-only effect; inactive means flat fitted curve, though single readings scatter.
Field 'call' accepts label 1 = active, label 0 = inactive

query: Name the outcome recorded for Cc1oc(=O)oc1CN1CCN(c2cc3c(cc2F)c(=O)c(C(=O)O)c2n3C(C)S2)CC1 (stereo unspecified) in the assay.
result: label 1

---

protocol: Drug repurposing screens with cells derived from glioblastoma tumor samples (AID 1345199); further: on the % scale 0 is the no-effect control and ±100 the full control effect; nearly all actives have a fitted effect of over 40% in size
recorded.conditions: GBM patient neurospheres viability, ATP luminescence, 48 h; at 21.2 µM (top of the series); tumour line D
Inconclusive results are not listed.
Listed here: items and their measured activity, negative = cell killing.
Give the number; % is assumed, so skip it.

Take a look at these entries with their results.
CS(=O)(=O)c1ccc([C@@H](O)[C@@H](CO)NC(=O)C(Cl)Cl)cc1	-24.7
CCCCOc1ccc(CC(=O)NO)cc1	-14.5
Cn1c(=O)c2c(ncn2CC(O)CO)n(C)c1=O (stereo unspecified)	1.54
Cc1cccc(N(C)C(=S)Oc2ccc3ccccc3c2)c1	-7.02

Short answer for "CCOC(=O)c1ccc(OC(=O)CCCCCN=C(N)N)cc1" : activity, negative = cell killing was -2.23

Short answer for "Nc1ccc(S(=O)(=O)Nc2ccccn2)cc1" : activity, negative = cell killing was 5.31

---

protocol: qHTS Screen of the MIPE 4.0 Collection Against Ewings Sarcoma (TC71) (AID 1259253); further: nearly all actives have a fitted effect of over 40% in size; further: potency means the concentration at half of the fitted maximal effect
recorded.conditions: TC71 Ewing sarcoma viability, CellTiter-Glo, 48 h; series mostly up to 45.8 µM
Inconclusive results are not listed. Activity calls are given as the source filed them. Calls follow the shape of the dose curve; as a rule, active = well fitted inhibition curve with a large enough effect; inconclusive = small, poorly fitted or top-dose-only effect; inactive = no such curve, though single readings can be large or run the other way.
property.measured: Potency

Take a look at these entries with their results.
COc1ncnc(NS(=O)(=O)c2ccc(N)cc2)c1OC	inactive
O=C(O)CCn1c2c(c3ccccc31)C[C@H](NS(=O)(=O)c1ccc(F)cc1)CC2	inactive
Cc1noc(NS(=O)(=O)c2ccc(N)cc2)c1C	inactive
Cc1cccc(N(C)C(=S)Oc2ccc3ccccc3c2)c1	inactive
Nc1nc(N)nc(-c2cc(Cl)ccc2Cl)n1	inactive
CC1=NN(c2ccccc2)C(=O)C1	inactive
CC(C)C[C@H](NC(=O)[C@H](CCc1ccccc1)NC(=O)CN1CCOCC1)C(=O)N[C@@H](Cc1ccccc1)C(=O)N[C@@H](CC(C)C)C(=O)[C@@]1(C)CO1	0.0372 µM (active)
CNC1CCCN(c2c(F)cc3c(=O)c(C(=O)O)cn(C4CC4)c3c2OC)C1 (stereo not drawn)	18.7 µM (active)
CCOC(=O)[C@H](CCc1ccccc1)N[C@H]1CS[C@H](c2cccs2)CN(CC(=O)O)C1=O	5.9 µM (active)
COC(=O)Nc1nc2ccc(Sc3ccccc3)cc2[nH]1	1.66 µM (active)

Short answer for "CN(C)c1ccc(C(=C2C=CC(=[N+](C)C)C=C2)c2ccc(N(C)C)cc2)cc1" : Potency was 0.296 µM (active)

Short answer for "CN(C)CCc1c[nH]c2ccc(CS(=O)(=O)N3CCCC3)cc12" : Potency was inactive

Short answer for C1CCC(C(CC2CCCCN2)C2CCCCC2)CC1 (stereo not drawn) : Potency was 13.2 µM (active)

Short answer for "C[C@@H]1CN(c2c(F)c(N)c3c(=O)c(C(=O)O)cn(C4CC4)c3c2F)C[C@H](C)N1" : Potency was inactive

Short answer for "Cc1onc(-c2ccccc2Cl)c1C(=O)N[C@@H]1C(=O)N2[C@@H]1SC(C)(C)[C@@H]2C(=O)O" : Potency was inactive

Short answer for CC(C(=O)O)c1ccc2c(c1)CC(=O)c1ccccc1S2 (stereo not drawn) : Potency was inactive

Short answer for "COCCCOc1cc(C[C@@H](C[C@H](N)[C@@H](O)C[C@H](C(=O)NCC(C)(C)C(N)=O)C(C)C)C(C)C)ccc1OC" : Potency was inactive

Short answer for "CCn1cc(C(=O)O)c(=O)c2cc(F)c(N3CCNCC3)nc21" : Potency was inactive

Short answer for "COc1ccc2c(c1)c(CC(=O)OCC(=O)O)c(C)n2C(=O)c1ccc(Cl)cc1" : Potency was inactive
